Molecular target: Y2 receptors (Homo sapiens, UniProt P49146)
Construct: endogenous in cells; host or cells: KAN-Ts cells (membranes)
Sequence (P49146 1-381): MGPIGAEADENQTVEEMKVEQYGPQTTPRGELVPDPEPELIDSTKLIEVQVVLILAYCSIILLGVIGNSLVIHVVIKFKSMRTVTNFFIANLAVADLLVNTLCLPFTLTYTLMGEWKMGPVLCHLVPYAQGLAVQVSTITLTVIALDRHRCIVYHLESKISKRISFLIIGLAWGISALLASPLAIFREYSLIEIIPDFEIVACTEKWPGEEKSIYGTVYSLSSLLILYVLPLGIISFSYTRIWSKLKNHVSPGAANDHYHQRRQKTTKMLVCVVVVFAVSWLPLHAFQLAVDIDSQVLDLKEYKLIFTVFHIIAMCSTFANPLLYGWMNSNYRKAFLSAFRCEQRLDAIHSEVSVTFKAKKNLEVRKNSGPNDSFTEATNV
Experiment: Radioligand binding assay ([125I]PYY, KAN-Ts cell membranes)
Conditions: Table 1, [125I]PYY 80 pM, average of results, read-out: IC50
Measured IC50, listed per entry.
Give the number; nM is assumed, so skip it.

INSERT INTO measurements (compound, reported) VALUES
  ('CNc1ccccc1C(=O)Nc1ccc(N2CCN(C(C(=O)OC)c3ccccc3)CC2)c(F)c1 (stereo not shown) [Example 68]', 1400),
  ('CCN(CC)C(=O)C(c1ccccc1)N1CCN(c2ccc(NC(=O)[C@H]3CCOC3)cc2C#N)CC1 (stereo partly shown) [Example 122]', 8),
  ('CCNC(=O)C(c1ccccc1)N1CCN(c2ccc(NC(=O)/C=C\c3ccccc3OC)cc2F)CC1 (stereo not shown) [Example 97]', 1100);

Challenge: For the compound CCN(CC)C(=O)C(c1ccccc1)N1CCN(c2ccc(N(CC)C(=O)N(CC)c3c(C)noc3C)cc2F)CC1 (stereo not shown) [Example 30] , what IC50 is on record?
Response given: 570

====

Target: Y2 receptors (Homo sapiens)
Construct: endogenous in cells; host or cells: KAN-Ts cells (membranes)
Experiment: Radioligand binding assay ([125I]PYY, KAN-Ts cell membranes)
Conditions: Table 1, [125I]PYY 80 pM, average of results, read-out: IC50
Doc: threshold 70 nM (exclusive). Items with IC50 beneath it return Condition met; others return Condition not met.

Here's what some known entries look like.
INSERT INTO measurements (compound, class_assignment) VALUES
  ('CCN(CC)C(=O)C(c1ccccc1)N1CCN(c2ccc(NC(=O)[C@H]3CCOC3)cc2F)CC1 (some centres unmarked) [Example 29]', 'Condition met'),
  ('CCN(CC)C(=O)C(c1ccccc1)N1CCN(c2ccc(NC(=O)C3CCC3)cc2F)CC1 (centres unmarked) [Example 135]', 'Condition met'),
  ('CCN(CC)C(=O)C(c1ccccc1)C1CCN(c2ccc(NC(=O)C(C)C)cc2F)CC1 (centres unmarked) [Example 140]', 'Condition not met'),
  ('CCCC(C)C(=O)Nc1ccc(N2CCN(C(C(=O)OC)c3ccccc3)CC2)cc1 (centres unmarked) [Example 85]', 'Condition not met'),
  ('CCNC(=O)C(c1ccccc1)N1CCN(c2ccc(NC(=O)Cc3ccncc3)cc2F)CC1 (centres unmarked) [Example 92]', 'Condition not met');

Now, please, on to the next compound.
Challenge: Is it true that IC50 reported for COC(=O)C(c1ccccc1)N1CCN(c2ccc(NC(=O)c3ccccc3I)cc2F)CC1 (centres unmarked) [Example 99] is less than 70 nM?
Response given: Condition not met

This collection of values is drawn from patent US8183239B2.
